target: T1, SARS-CoV-2 S on CHO-S cells (SARS-CoV-2, UniProt P0DTC2 14-1273)
T1 construct: whole, on cells
experimental details: flow cytometry, CHO-S cells
Recorded pEC50 for the following binders
Please express pEC50 as -log10 of the molar concentration.

Sample answers from the record:
NRCoV2-04 VHH-Fc (Fc fusion, bivalent VHH-Fc) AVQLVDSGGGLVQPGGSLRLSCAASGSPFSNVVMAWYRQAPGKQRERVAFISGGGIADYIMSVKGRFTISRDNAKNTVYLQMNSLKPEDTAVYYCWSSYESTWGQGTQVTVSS: 8.89
NRCoV2-10 VHH-Fc (Fc fusion, bivalent VHH-Fc) QLQLQESGGGLVQPGGSLTLSCAASGNTFSRSNMHWYRQAPGAQREWVAAISSRGISTYAYSAKGRFTISRDNAKNTVSLQMNSLKPEDTAVYYCYAADDLGDYWGQGTQVTVSS: 8.89

Could you now look at the following binder, please?
Incoming: State its pEC50 for this binder: NRCoV2-1d VHH-Fc (Fc fusion, bivalent VHH-Fc) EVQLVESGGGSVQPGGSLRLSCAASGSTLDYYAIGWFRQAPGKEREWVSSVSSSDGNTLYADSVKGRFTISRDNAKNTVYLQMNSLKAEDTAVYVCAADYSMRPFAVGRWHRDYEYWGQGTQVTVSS
Outgoing: 8.96
